Just for reference, patent US12421217B2 is where these values come from.

Consider the following compounds and their measured IC50 readings.
molecular target: recombinant human DHODH (Homo sapiens); construct: DHODH, 31-395 aa, Human, His tag, E. coli, ATGP1615; His tag; purchased ATGen Co. Ltd. ATGP1615; host or cells: E. coli; test: Enzyme reaction inhibition test (DHODH enzyme assay, DCIP quenching); format: biochemical; settings: DCIP absorbance 600 nm, 50 minutes, read-out: Enzyme reaction inhibitory effect (IC50)
Sequence (Q02127 31-395): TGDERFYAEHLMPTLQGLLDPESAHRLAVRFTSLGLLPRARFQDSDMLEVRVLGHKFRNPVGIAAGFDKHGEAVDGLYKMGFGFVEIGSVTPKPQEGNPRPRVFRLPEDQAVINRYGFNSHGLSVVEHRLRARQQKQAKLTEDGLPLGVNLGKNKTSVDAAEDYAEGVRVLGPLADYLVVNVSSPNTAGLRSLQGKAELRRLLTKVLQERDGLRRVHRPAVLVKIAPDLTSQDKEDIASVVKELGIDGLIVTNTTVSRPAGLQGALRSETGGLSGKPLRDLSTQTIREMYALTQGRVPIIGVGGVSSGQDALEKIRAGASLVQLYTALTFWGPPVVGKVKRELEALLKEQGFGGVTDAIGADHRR

Example entries and their recorded answers appear below.
O=C(O)c1nc(C2CC2)cnc1Nc1cccc(C2=CCOCC2)c1OCC(F)F [Example 19-3] : < 0.01 µM
CCOc1c(C2=CCOCC2)cc(F)c(F)c1Nc1ncc(C2CC2)nc1C(=O)O [Example 19-2] : 0.01 to 0.1 µM
O=C(O)c1nc(C2CC2)cnc1Nc1cccc(C2CCOCC2)c1CC(F)F [Example 19-29] : 0.01 to 0.1 µM
CCCc1c(Nc2ncc(C3CC3)nc2C(=O)O)cccc1C1=CCOCC1 [Example 19-16] : 0.01 to 0.1 µM
O=C(O)c1nc(C2CC2)cnc1Nc1cccc(C2CCOCC2)c1CC(F)(F)F [Example 19-18] : 0.01 to 0.1 µM
CC(C)c1c(Nc2ncc(C3CC3)nc2C(=O)O)cccc1C1CCOCC1 [Example 19-13] : < 0.01 µM
CCCc1c(Nc2ncc(C3CC3)nc2C(=O)O)cccc1C1CCOCC1 [Example 13] : 0.01 to 0.1 µM
CC(C)c1cnc(Nc2cccc(C3=CCOCC3)c2OCC(F)(F)F)c(C(=O)O)n1 [Example 19-31] : 0.01 to 0.1 µM

Any idea what its IC50 is? The compound is CC1=C(c2cccc(Nc3ncc(C4CC4)nc3C(=O)O)c2OCC(F)(F)F)CCOC1 [Example 19-14]
< 0.01 µM

O=C(O)c1nc(C2CC2)cnc1Nc1cccc(C2CCOCC2)c1C1CC1 [Example 19-12] ?
< 0.01 µM

Cc1c(Nc2ncc(C3CC3)nc2C(=O)O)cc(F)cc1C1=CCOCC1 [Example 19-4] ?
0.01 to 0.1 µM
